compounds and their reported % Inhibition
- System: soluble epoxide hydrolase (sEH)
- experiment summary: Fluorescent assay for mouse and human soluble epoxide hydrolase (CMNPC substrate)
- Type: biochemical, mouse or human, not specified
- condition: Conc 50 nM
Reply numerically in %, unit not repeated.

Field: example entries. Status: answers known.
[[record]]
item_smiles = "Cn1cnc(C(=O)N2CCC(NC(=O)Nc3ccc(C(F)(F)F)cc3)CC2)c1"
measurement_label = "% Inhibition"
unit_descriptor = "%"
quantitative_readout = 89

[[record]]
item_smiles = "CC(C)(C)OC(=O)C(C)(C)Oc1ccc(C(=O)N2CCC(NC(=O)Nc3ccc(C(F)(F)F)cc3)CC2)cc1"
measurement_label = "% Inhibition"
unit_descriptor = "%"
quantitative_readout = 89

[[record]]
item_smiles = "O=C(Nc1ccc(F)cc1)NC1CCN(S(=O)(=O)c2ccc(C(F)(F)F)cc2)CC1"
measurement_label = "% Inhibition"
unit_descriptor = "%"
quantitative_readout = 89

[[record]]
item_smiles = "O=C(Nc1ccc(F)cc1)NC1CCN(S(=O)(=O)c2cccc(C(F)(F)F)c2)CC1"
measurement_label = "% Inhibition"
unit_descriptor = "%"
quantitative_readout = 90

[[record]]
item_smiles = "O=C(Nc1cccc(F)c1)NC1CCN(S(=O)(=O)c2ccc(Cl)cc2)CC1"
measurement_label = "% Inhibition"
unit_descriptor = "%"
quantitative_readout = 91


Problem: Observed % Inhibition on soluble epoxide hydrolase (sEH) for CC(C)(C)C(=O)N1CCC(NC(=O)Nc2ccc(C(F)(F)F)cc2)CC1 , please.
Solution: 97

Problem: Notebook entry, soluble epoxide hydrolase (sEH) assay: % Inhibition of O=C(Nc1cccc(F)c1)NC1CCN(S(=O)(=O)c2ccccc2)CC1 = ?
Solution: 82

Problem: Requested read-out % Inhibition, target or system soluble epoxide hydrolase (sEH), entry CS(=O)(=O)N1CCC(NC(=O)Nc2ccc(F)cc2)CC1
Solution: 80

Problem: Identify the measured % Inhibition of Cc1nc(C(=O)N2CCC(NC(=O)Nc3ccc(C(F)(F)F)cc3)CC2)c(C)o1 for soluble epoxide hydrolase (sEH).
Solution: 92

Problem: Query the reported % Inhibition for soluble epoxide hydrolase (sEH); item: O=C(Nc1cccc(F)c1)NC1CCN(S(=O)(=O)c2cccc(C(F)(F)F)c2)CC1
Solution: 94

Problem: Reported % Inhibition for soluble epoxide hydrolase (sEH), given O=C(Nc1ccc(C(F)(F)F)cc1)NC1CCN(S(=O)(=O)c2ccccc2)CC1 ?
Solution: 90
